tested.system: 3-phosphoinositide-dependent protein kinase 1 (Homo sapiens) (UniProt O15530)
metric.name: IC50

INSERT INTO measurements (item_smiles, tested_system, reported) VALUES
  ('CC(C)(C)C(=O)N1Cc2c(n[nH]c2NC(=O)c2cc(F)cc(F)c2)C1(C)C', '3-phosphoinositide-dependent protein kinase 1 (Homo sapiens) (UniProt O15530)', '> 10 µM');

Value source: BindingDB's records for doi:10.1016/j.bmc.2010.01.042
